Arginase (ARG1 enzyme) (Homo sapiens, UniProt P05089) data, read-out IC50
Sequence (P05089 whole entry): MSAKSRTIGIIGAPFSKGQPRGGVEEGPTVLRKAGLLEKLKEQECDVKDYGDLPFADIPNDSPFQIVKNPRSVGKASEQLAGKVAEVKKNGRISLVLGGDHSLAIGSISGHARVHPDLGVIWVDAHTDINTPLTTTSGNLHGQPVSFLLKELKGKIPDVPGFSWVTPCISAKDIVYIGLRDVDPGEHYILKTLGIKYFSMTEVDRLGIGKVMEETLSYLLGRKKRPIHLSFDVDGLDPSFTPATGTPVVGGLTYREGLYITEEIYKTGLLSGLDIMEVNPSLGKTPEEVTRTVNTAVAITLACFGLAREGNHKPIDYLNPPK

Worked cases, answers included:
O=C(O)[C@H]1NC[C@H](NCC(F)(F)F)[C@H]1CCCB(O)O :: 120 nM
O=C(O)[C@H]1NCCC1CCCB(O)O (stereo partly drawn) [Example 9, 3-[3-(dihydroxyboranyl)propyl]-L-proline] :: 113 nM

Continue with the next molecule.
Short answer on Arginase (ARG1 enzyme) (Homo sapiens, UniProt P05089) for `O=C(O)[C@H]1NC[C@H](NCC(F)F)[C@H]1CCCB(O)O` , IC50: 128 nM
